- system-under-test: CDK2/cyclinE1 (Homo sapiens, UniProt P24941)
- experiment-summary: Cyclin-dependent kinase activity assay (continuous ATP coupling assay), CDK2/cyclinE1
- run-parameters: CDK2/cyclinE1 5 nM, ATP 300 μM, Rb copeptide 100 μM, 15 min preincubation, pH 7.5, 1% DMSO
measurement-name: IC50

See these solved cases before continuing.
| compound | experimental-value |
| --- | --- |
| CC(O)Cc1cnn(-c2nc(NC3CCN(S(C)(=O)=O)CC3)ncc2C(F)(F)F)c1 (single isomer, unassigned) [Example 108] | 10 to 100 nM |
| CNS(=O)(=O)c1ccc(Nc2ncc(C#N)c(-n3cccn3)n2)cc1 [Example 26] | 10 to 100 nM |

Prompt: Give the reported value of IC50 for this record: O=S(=O)(NCC1(O)CC1)c1ccc(Nc2ncc(C(F)(F)F)c(-n3cccn3)n2)cc1 [Example 131]
Response: ≤ 10 nM

Prompt: Give the reported value of IC50 for this record: O=S(=O)(NCC1(CO)CC1)c1ccc(Nc2ncc(C(F)(F)F)c(-n3cccn3)n2)cc1 [Example 132]
Response: 10 to 100 nM

Prompt: Give the reported value of IC50 for this record: CNS(=O)(=O)c1ccc(Nc2ncc(C(F)(F)F)c(-n3cccn3)n2)c(F)c1 [Example 27]
Response: ≥ 100 nM

Prompt: Give the reported value of IC50 for this record: O=S(=O)(NCCO)c1ccc(Nc2ncc(F)c(-n3cccn3)n2)cc1 [Example 115]
Response: 10 to 100 nM

Prompt: Give the reported value of IC50 for this record: CNS(=O)(=O)c1ccc(Nc2ncc(Cl)c(-n3cc(CC(C)(C)O)cn3)n2)cc1 [Example 65]
Response: ≤ 10 nM

Prompt: Give the reported value of IC50 for this record: O=C1NCc2cc(Nc3ncc(C(F)(F)F)c(-n4cccn4)n3)ccc21 [Example 39]
Response: ≥ 100 nM

Prompt: Give the reported value of IC50 for this record: O=S(=O)(CCCO)c1ccc(Nc2ncc(C(F)(F)F)c(-n3cccn3)n2)cc1 [Example 130]
Response: 10 to 100 nM

Prompt: Give the reported value of IC50 for this record: CS(=O)(=O)Nc1ccc(Nc2ncc(C(F)(F)F)c(-n3cccn3)n2)cc1 [Example 120]
Response: 10 to 100 nM

Prompt: Give the reported value of IC50 for this record: CNS(=O)(=O)c1ccc(Nc2ncc(Br)c(-n3cc(CC(C)(C)O)cn3)n2)cc1 [Example 68]
Response: ≤ 10 nM

###

- system-under-test: CDK1/cyclinB1 (Homo sapiens, UniProt P06493)
- Sequence (P06493 whole entry): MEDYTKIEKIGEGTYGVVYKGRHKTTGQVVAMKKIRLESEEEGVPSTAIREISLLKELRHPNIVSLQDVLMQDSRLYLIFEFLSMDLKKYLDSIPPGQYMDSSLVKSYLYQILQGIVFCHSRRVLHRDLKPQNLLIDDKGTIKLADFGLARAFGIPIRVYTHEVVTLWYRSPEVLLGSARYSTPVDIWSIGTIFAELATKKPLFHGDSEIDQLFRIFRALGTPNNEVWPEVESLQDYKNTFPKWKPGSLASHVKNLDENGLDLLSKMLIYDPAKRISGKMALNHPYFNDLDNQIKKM
- Sequence (P14635 whole entry partner): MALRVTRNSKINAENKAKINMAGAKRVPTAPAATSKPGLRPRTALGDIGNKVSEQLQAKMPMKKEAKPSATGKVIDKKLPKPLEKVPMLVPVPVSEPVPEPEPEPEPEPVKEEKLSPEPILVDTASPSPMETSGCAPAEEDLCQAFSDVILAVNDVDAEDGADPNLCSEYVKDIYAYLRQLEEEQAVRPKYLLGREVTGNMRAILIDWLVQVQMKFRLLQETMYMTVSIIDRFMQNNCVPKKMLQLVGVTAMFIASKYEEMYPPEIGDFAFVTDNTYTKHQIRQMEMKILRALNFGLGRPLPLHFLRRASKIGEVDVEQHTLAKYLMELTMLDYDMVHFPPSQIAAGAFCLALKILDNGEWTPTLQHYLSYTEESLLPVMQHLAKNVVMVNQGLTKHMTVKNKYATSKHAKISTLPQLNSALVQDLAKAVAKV
- experiment-summary: Cyclin-dependent kinase activity assay (continuous ATP coupling assay), CDK1/cyclinB1
- run-parameters: CDK1/cyclinB1 10 nM, ATP 200 μM, Histone1 copeptide 100 μM, 15 min preincubation, pH 7.5, 1% DMSO
pIC50: −log10 of the molar value.
measurement-name: pIC50

| molecule | system-under-test | measurement-name | experimental-value |
| --- | --- | --- | --- |
| CC(O)CNS(=O)(=O)c1ccc(Nc2ncc(C(F)(F)F)c(-n3cccn3)n2)cc1 (stereo not shown) | CDK1/cyclinB1 (Homo sapiens, UniProt P06493) | pIC50 | ≤ 7.00 |
| CNS(=O)(=O)c1ccc(Nc2ncc(C(F)(F)F)c(-n3cc(C4CCN(C)CC4)cn3)n2)cc1 | CDK1/cyclinB1 (Homo sapiens, UniProt P06493) | pIC50 | 7.00 to 8.00 |
| CNS(=O)(=O)c1ccc(Nc2ncc(C(F)(F)F)c(-n3cc(C4CCCC4)cn3)n2)cc1 | CDK1/cyclinB1 (Homo sapiens, UniProt P06493) | pIC50 | 7.00 to 8.00 |

Let us move to another entry and its pIC50.
Prompt: Give the reported value of pIC50 for this record: CNS(=O)(=O)c1ccc(Nc2ncc(Br)c(-n3cccn3)n2)cc1
Response: ≤ 7.00
